B1: CLCN6 (parent)
chain: VGEIVGIITRHNLTYEFLQARLRQ

Variants of: B1
Assay: protein stability index of a GFP-peptide fusion (GPS, HEK-293T) (PSI 1-6); higher = more stable;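 also: lentivirally expressed fusions sorted by FACS into six bins by GFP to DsRed ratio, PSI derived from sequencing read proportions per bin multiplied by bin number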
Details: c terminus: a fixed tail appended
Outcome: t for protein stability index of at least 2; f for anything lower.

Below are worked cases with known answers.
V5S ... f
E3C ... t
V1K ... t

Attention now turns to another entry.
Tell me whether protein stability index is at least 2 here: `T9S`
t

Where do the numbers come from? From the supplement of paper PMC10567573.
